tested on: PC-3 prostate; test: NCI tumour cell line growth inhibition, 48 h
measure_name: TGI (µM)
Numbers only here, please. The scale is µM.

Noted for C=C(C)[C@@H]1CC[C@]2(COCCCNCCCN)CC[C@]3(C)[C@H](CC[C@@H]4[C@@]5(C)CC[C@H](OCCCN)C(C)(C)[C@@H]5CC[C@]43C)[C@@H]12 : its TGI reads 1.72

Noted for COc1cc(OC)cc(-c2nc3sccn3c2/C=N/N=C(N)N)c1 : its TGI reads 16.2

Noted for CN(C)C[C@H]1CCn2c(c(C3=C(c4cn(C)c5ccccc45)C(=O)NC3=O)c3ccccc32)C1 : its TGI reads 8.56
